assayed-target: Recombinant STAT6 protein (STAT6(W123-T658)) (Homo sapiens)
Construct: STAT6(W123-T658)
Sequence (P42226 123-658, species assumed): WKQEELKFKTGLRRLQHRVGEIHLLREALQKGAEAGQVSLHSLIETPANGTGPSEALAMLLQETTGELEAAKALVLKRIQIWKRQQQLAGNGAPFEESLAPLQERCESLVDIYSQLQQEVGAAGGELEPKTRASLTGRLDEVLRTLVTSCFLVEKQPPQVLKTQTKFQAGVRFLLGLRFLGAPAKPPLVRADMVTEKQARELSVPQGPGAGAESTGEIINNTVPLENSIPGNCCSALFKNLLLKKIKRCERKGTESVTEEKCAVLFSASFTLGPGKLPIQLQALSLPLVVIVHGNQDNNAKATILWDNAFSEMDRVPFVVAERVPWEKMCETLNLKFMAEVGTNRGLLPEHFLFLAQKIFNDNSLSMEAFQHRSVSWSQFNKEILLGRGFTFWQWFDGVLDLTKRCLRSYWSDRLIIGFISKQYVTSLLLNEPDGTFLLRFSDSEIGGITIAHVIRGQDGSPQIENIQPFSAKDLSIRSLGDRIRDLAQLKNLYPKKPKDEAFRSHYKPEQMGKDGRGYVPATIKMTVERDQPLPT
assay-protocol: STAT6 Fluorescence Polarization (FP) Assay
condition: STAT6(W123-T658) 250 nM, probe 5-FAM-ApYKPFQDLI-NH2 2 nM, 45-minute incubation
Experimental: STAT6 Fluorescence Polarization (FP) Assay An FP assay was developed to determine IC50 values for test substances. […] Reaction components were mixed, and FP was measured after 45-minute incubation at room temperature using a Tecan Spark multimode plate reader. FP signal (mP) was plotted against the log concentration of the test substances and IC50 values were calculated by nonlinear regression analysis using GraphPad Prism software. […]
endpoint-label: IC50

Examples with answers:
Write IC50 of Cn1cnnc1C1CN(C(=O)[C@@H]2CC[C@@H]3C[C@@H]4C[C@@H]4C[C@H](NC(=O)c4cc5cc(C(F)P(=O)(O)O)ccc5s4)C(=O)N32)C1 (some centres unmarked) [Example 331] ; system used: Recombinant STAT6 protein (STAT6(W123-T658)) (Homo sapiens) 3 to 30 µM

Write IC50 of O=C(N[C@H]1C[C@@H]2C[C@@H]2C[C@H]2CC[C@@H](C(=O)N3CC(c4ccon4)C3)N2C1=O)c1cc2cc(C(F)(F)P(=O)(O)O)ccc2s1 [Example 299] ; system used: Recombinant STAT6 protein (STAT6(W123-T658)) (Homo sapiens) 0.3 to 3 µM

Write IC50 of C[C@H]1CN(C(=O)C2CN(C(=O)[C@@H]3CC[C@@H]4C[C@H]5C[C@H]5C[C@H](NC(=O)c5cc6cc(C(F)(F)P(=O)(O)O)ccc6s5)C(=O)N43)C2)CCO1 [Compound 12] ; system used: Recombinant STAT6 protein (STAT6(W123-T658)) (Homo sapiens) 3 to 30 µM

***
Write IC50 of O=C(N[C@H]1C[C@@H]2C[C@@H]2C[C@H]2CC[C@@H](C(=O)N3CCOc4ncccc43)N2C1=O)c1cc2cc(C(F)P(=O)(O)O)ccc2s1 (some centres unmarked) [Example 386] ; system used: Recombinant STAT6 protein (STAT6(W123-T658)) (Homo sapiens) 0.3 to 3 µM

Write IC50 of N#C[C@@H]1CN(C(=O)[C@@H]2CC[C@@H]3C[C@H]4C[C@H]4C[C@H](NC(=O)c4cc5cc(C(F)(F)P(=O)(O)O)ccc5s4)C(=O)N32)C[C@]12C(=O)Nc1ccccc12 (single isomer, unassigned) [Compound 28] ; system used: Recombinant STAT6 protein (STAT6(W123-T658)) (Homo sapiens) ≤ 0.3 µM
